- Test system: HMS-1
- assay_notes: Competitive assay with nitrocefin (RSAI)
- Assay type: biochemical, E. coli 1946
Heads up, the class ranges for RSAI are low = under 0.5, moderate = from 0.5 up to 10, high = 10 and over

Solved cases (5 shown):
| molecule | tested_system | label |
| --- | --- | --- |
| CO/N=C(\C(=O)N[C@@H]1C(=O)N2C(C(=O)O)=C(COC(N)=O)CS[C@H]12)c1ccco1 | HMS-1 | high |
| CO/N=C(\C(=O)N[C@@H]1C(=O)N2C(C(=O)O)=CCS[C@H]12)c1csc(N)n1 | HMS-1 | high |
| Cc1onc(-c2ccccc2Cl)c1C(=O)N[C@@H]1C(=O)N2[C@@H]1SC(C)(C)[C@@H]2C(=O)O | HMS-1 | low |
| CC1(C)S[C@@H]2[C@H](NC(=O)[C@H](C(=O)O)c3ccsc3)C(=O)N2[C@H]1C(=O)O | HMS-1 | low |
| CCN1CCN(C(=O)N[C@@H](C(=O)N[C@@H]2C(=O)N3C(C(=O)O)=C(CSc4nnnn4C)CS[C@H]23)c2ccc(O)cc2)C(=O)C1=O | HMS-1 | low |

Request: Category of Cc1nnc(SCC2=C(C(=O)O)N3C(=O)[C@@H](NC(=O)Cn4cnnn4)[C@H]3SC2)s1 :
Result: moderate

Request: Category of CC1=C(C(=O)O)N2C(=O)[C@@H](NC(=O)[C@H](N)C3=CCC=CC3)[C@H]2SC1 :
Result: high

Request: Category of CC(=O)OCC1=C(C(=O)O)N2C(=O)[C@@H](NC(=O)Cc3cccs3)[C@H]2SC1 :
Result: moderate
